Test system: BDF1 mice, colon carcinoma 38 sc, T/C %
Assay method text: NCI In Vivo Anticancer Drug Screen. Data for tumor model Colon Carcinoma 38 (subcutaneous) in B6D2F1 (BDF1) mice
Assay conditions: endpoint: median tumor weight (est.); dose: 200.0 mg/kg/injection; schedule: Q07DX003 (ip); vehicle: Klucel (hydroxypropylcellulose) (HPC); higher = larger tumour
Inconclusive results are not listed.

Compound	T/C
CN(C1=NS(=O)(=O)N=C(N(C)c2ccccc2)O1)c1ccccc1	113 % of control
C[C@]12C=CC(=O)C=C1CC[C@@H]1[C@@H]2C(=O)C[C@@]2(C)[C@H]1CC[C@]2(O)C(=O)CO	88 % of control
Cc1ccc(NCC2(/N=C/c3ccccc3)OC(CO)C(O)C2O)cc1 (stereo not given)	59 % of control
OC(CBr)C(O)C(O)C(O)CBr (stereo not given)	32 % of control
ClCCCCCCCCCCc1ccccc1	90 % of control

----------
Below, each entry is listed with its recorded T/C.
Tested on: BDF1 mice, colon carcinoma 38 sc, T/C %
Assay method text: NCI In Vivo Anticancer Drug Screen. Data for tumor model Colon Carcinoma 38 (subcutaneous) in B6D2F1 (BDF1) mice
Assay conditions: endpoint: median tumor weight (est.); dose: 50.0 mg/kg/injection; schedule: Q07DX002 (ip); vehicle: saline; higher = larger tumour
Records with an inconclusive call do not appear.

Structure string	Tested system	T/C
CCN(CC)CC[n+]1ccc2c(C)c3[nH]c4ccc(O)cc4c3c(C)c2c1	BDF1 mice, colon carcinoma 38 sc, T/C %	5 % of control
c1cc(-c2cc3ccc(C4=NCCN4)cc3[nH]2)ccc1C1=NCCN1	BDF1 mice, colon carcinoma 38 sc, T/C %	84 % of control
Nc1cccc(=O)[nH]1	BDF1 mice, colon carcinoma 38 sc, T/C %	92 % of control
NC(=S)N/N=C/c1ccc(O)cn1	BDF1 mice, colon carcinoma 38 sc, T/C %	67 % of control
OCCN1CCN(CC/C=C2/c3ccccc3Sc3ccc(Cl)cc32)CC1	BDF1 mice, colon carcinoma 38 sc, T/C %	110 % of control
OCCN1CCN(CC/C=C2/c3ccccc3Sc3ccc(C(F)(F)F)cc32)CC1	BDF1 mice, colon carcinoma 38 sc, T/C %	68 % of control
O=Cc1ccc(O)c(O)c1	BDF1 mice, colon carcinoma 38 sc, T/C %	85 % of control

----------
Below, each entry is listed with its recorded T/C.
System: BDF1 mice, colon carcinoma 38 sc, T/C %
Assay method text: NCI In Vivo Anticancer Drug Screen. Data for tumor model Colon Carcinoma 38 (subcutaneous) in B6D2F1 (BDF1) mice
Assay conditions: endpoint: median tumor weight (est.); dose: 12.5 mg/kg/injection; schedule: Q07DX003 (ip); vehicle: Klucel (hydroxypropylcellulose) (HPC); higher = larger tumour
Results filed as inconclusive are left out.
Property name: T/C

Compound	Tested system	Property name	Measurement
CC(=O)OCC1OC(n2cc(CBr)nn2)C(OC(C)=O)C(OC(C)=O)C1OC(C)=O (stereo not given)	BDF1 mice, colon carcinoma 38 sc, T/C %	T/C	93 % of control
C/C(=C\c1ccccc1)[N+](=O)[O-]	BDF1 mice, colon carcinoma 38 sc, T/C %	T/C	81 % of control
C1CCC2[N-]CC3CCCCC3[N-]CC3CCCCC3[N-]CC3CCCCC3[N-]CC2C1.[Cu] (stereo not given)	BDF1 mice, colon carcinoma 38 sc, T/C %	T/C	95 % of control
CC12CC(C(=O)O)C3(O)CC(C)(C1)CC(C)(C2)C3 (stereo not given) (tested in a mixture with another compound)	BDF1 mice, colon carcinoma 38 sc, T/C %	T/C	70 % of control
ClCCCCCCCCCCc1ccccc1	BDF1 mice, colon carcinoma 38 sc, T/C %	T/C	77 % of control

These entries and their values trace back to PubChem BioAssay AID212.
